We begin with a simple list: items and their reported log10 of Vd.
test: PK protocol, intravenous administration; type: in vivo, male Sprague Dawley rats; conditions: male, Sprague Dawley, rat, plasma, dose (mg/kg), read-out: Vdss
Counter-ions that a name gives are not always drawn.
Kindly note that the scale is log10 and the underlying Vd is in L/kg.

> print(dat)
                                   compound  number
1  CC(C)c1cc(Cl)cc(C(C)C)c1NC(=O)NS(=O)(=O)c1cc(CN(C)C)n(C)n1 [Example 93, Sodium Salt]    0.23
2  CC(c1cc(S(=O)(=O)NC(=O)Nc2c3c(cc4c2CCC4)CCC3)nn1C(C)C)N(C)C (stereo not shown)   -0.29
3  CCN(C)Cc1cc(S(=O)(=O)NC(=O)Nc2c3c(cc4c2CCC4)CCC3)nn1C   -0.33
4  CC(c1cc(S(=O)(=O)NC(=O)Nc2c3c(cc4c2CCC4)CCC3)nn1C1CC1)N1CCC1 (stereo not shown)   -0.24
5  Cn1nc(S(=O)(=O)[N-]C(=O)Nc2c3c(cc4c2CCC4)CCC3)cc1C[N+](C)(C)C   -0.68

# get_value(readout='log10 of Vd', item= CC(C)c1cc(F)cc(C(C)C)c1NC(=O)NS(=O)(=O)c1cc(CN(C)C)n(C)n1 [Example 92, Sodium Salt] )
0.34

Moving on to the next compound: CCC(c1cc(S(=O)(=O)NC(=O)Nc2c3c(cc4c2CCC4)CCC3)nn1C)N(C)C (single isomer, unassigned; enantiomer 2)
-0.29
